biological target: IDO (Homo sapiens, UniProt P14902); assay: hIDO biochemical coupled assay; settings: 45 μM L-tryptophan, 17 minutes, room temperature; read-out: hIDO biochemical assay pIC50 (converted)
Sequence (P14902 whole entry): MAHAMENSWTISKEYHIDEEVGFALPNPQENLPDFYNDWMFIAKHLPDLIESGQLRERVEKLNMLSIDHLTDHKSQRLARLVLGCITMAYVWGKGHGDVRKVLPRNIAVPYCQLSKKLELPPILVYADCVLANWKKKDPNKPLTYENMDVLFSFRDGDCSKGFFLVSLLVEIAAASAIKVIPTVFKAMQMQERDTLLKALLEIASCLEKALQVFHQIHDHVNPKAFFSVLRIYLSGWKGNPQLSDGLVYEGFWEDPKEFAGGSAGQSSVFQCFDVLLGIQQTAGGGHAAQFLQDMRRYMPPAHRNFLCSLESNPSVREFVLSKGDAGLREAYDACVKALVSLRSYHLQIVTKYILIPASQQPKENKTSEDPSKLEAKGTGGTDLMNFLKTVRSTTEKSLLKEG
endpointLabel: IC50

INSERT INTO assay_data (compound, reportedvalue) VALUES
  ('CC(=O)N1CCN(c2cc(Cl)cc3c(N)n[nH]c23)CC1', '> 100 µM'),
  ('CNc1cc(-c2cc(Cl)cc3[nH]ncc23)ccn1', '> 100 µM'),
  ('CS(=O)(=O)N1CC2(CCN(c3cc(Cl)cc4[nH]ncc34)CC2)C1', '32.4 to 100 µM'),
  ('CC(=O)N(C)c1cc(N2CCN(S(C)(=O)=O)C(C)(C)C2)c2cn[nH]c2c1', '> 100 µM'),
  ('OC(c1cc(Cl)cc2[nH]ncc12)C1CCCCC1 (stereo not drawn)', '> 100 µM'),
  ('CC(=O)N1CCC2(CCN(c3cc(Cl)cc4[nH]ncc34)CC2)C1', '32.4 to 100 µM');

Ask | What value of measured IC50 is listed for CC1(C)CN(c2cccc3[nH]ncc23)CCN1S(C)(=O)=O ?
Reply | 3.24 to 31.6 µM

Ask | What value of measured IC50 is listed for COc1cc(-c2cc(Cl)cc3[nH]ncc23)ccc1S(C)(=O)=O ?
Reply | > 100 µM

Ask | What value of measured IC50 is listed for CC(C)CNC(=O)c1cc(Cl)cc2[nH]ncc12 ?
Reply | > 100 µM

====

target: TDO (Homo sapiens, UniProt P48775); assay: A172 kynurenine cell-based assay; set-up: This assay utilised cancer cells which expressed either TDO or IDO; endogenous in cells; host or cells: A172 (human glioblastoma); conditions: A172 human glioblastoma cells, 48 hours, 500 μM L-tryptophan; read-out: A172 Kynurenine cell based assay pIC50 (converted)
Sequence (P48775 whole entry): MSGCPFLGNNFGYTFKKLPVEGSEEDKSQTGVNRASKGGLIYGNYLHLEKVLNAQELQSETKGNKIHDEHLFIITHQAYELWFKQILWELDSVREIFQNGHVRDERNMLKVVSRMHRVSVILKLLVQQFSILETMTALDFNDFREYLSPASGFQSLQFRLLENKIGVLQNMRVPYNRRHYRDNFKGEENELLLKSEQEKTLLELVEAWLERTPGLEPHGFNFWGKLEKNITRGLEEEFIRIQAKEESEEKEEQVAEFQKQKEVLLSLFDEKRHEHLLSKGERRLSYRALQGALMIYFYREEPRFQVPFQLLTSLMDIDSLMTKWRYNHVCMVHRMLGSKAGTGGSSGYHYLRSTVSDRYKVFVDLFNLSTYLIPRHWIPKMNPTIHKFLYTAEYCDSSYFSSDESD
The following compounds are shown together with reported IC50 values.

Would you please look over these solved cases?
INSERT INTO results (compound, targetsystem, reportedvalue) VALUES
  ('Cc1nc2c(n1C)CN(c1cc(Cl)cc3[nH]ncc13)CC2', 'TDO (Homo sapiens, UniProt P48775)', '3.24 to 31.6 µM'),
  ('O=C1NC2(CCN(c3cc(Cl)cc4[nH]ncc34)CC2)C(=O)N1Cc1ccccc1', 'TDO (Homo sapiens, UniProt P48775)', '< 3.16 µM'),
  ('CNc1cc(-c2cc(Cl)cc3[nH]ncc23)ccn1', 'TDO (Homo sapiens, UniProt P48775)', '< 3.16 µM'),
  ('NC(=O)N1CCN(c2cc(Cl)cc3[nH]ncc23)CC1', 'TDO (Homo sapiens, UniProt P48775)', '< 3.16 µM');

Ask | What value of measured IC50 is listed for CC(=O)N1CC=C(c2cc(Br)cc3[nH]ncc23)CC1 ?
Reply | < 3.16 µM

Ask | What value of measured IC50 is listed for CS(=O)(=O)NCC1CCCN(c2cc(Cl)cc3[nH]ncc23)C1 (stereo not shown) ?
Reply | 3.24 to 31.6 µM

Ask | What value of measured IC50 is listed for CNS(=O)(=O)N1CCC(c2cc(Cl)cc3[nH]ncc23)CC1 ?
Reply | < 3.16 µM

====

biological target: UniProtKB P14902; assay: hIDO biochemical coupled assay; conditions: 45 μM L-tryptophan, 17 minutes, room temperature; read-out: hIDO biochemical assay pIC50 (converted)
endpointLabel: IC50

INSERT INTO results (molecularstring, reportedvalue) VALUES
  ('O=C(Nc1cccc2[nH]ncc12)c1ccccc1', '> 100 µM'),
  ('CNC(=O)c1ccc(-c2cc(Cl)cc3[nH]ncc23)cc1', '> 100 µM'),
  ('CNc1ccc(-c2cc(Cl)cc3[nH]ncc23)cn1', '> 100 µM'),
  ('CC1(C)CN(c2cc(Cl)cc3[nH]ncc23)CCN1CCNS(C)(=O)=O', '3.24 to 31.6 µM'),
  ('Clc1cc(N2CCOCC2)c2cn[nH]c2c1', '> 100 µM'),
  ('CS(=O)(=O)NCCN1C(=O)NC2(CCN(c3cc(Cl)cc4[nH]ncc34)CC2)C1=O', '< 3.16 µM'),
  ('CNC(=O)c1ccc(N2CCN(c3cc(Cl)cc4[nH]ncc34)CC2)cc1', '> 100 µM'),
  ('CS(=O)(=O)c1ccc(-c2cc(Cl)cc3[nH]ncc23)c(F)c1', '3.24 to 31.6 µM'),
  ('CN(C)S(=O)(=O)Nc1cccc2[nH]ncc12', '> 100 µM'),
  ('O=C(NCC1CCCCC1)c1cc(Cl)cc2[nH]ncc12', '> 100 µM');

Ask | What value of measured IC50 is listed for CS(=O)(=O)c1ccc(-c2cc(Cl)cc3[nH]ncc23)c(Cl)c1 ?
Reply | 3.24 to 31.6 µM

Ask | What value of measured IC50 is listed for CS(=O)(=O)N1CC2(CN(c3cc(Cl)cc4[nH]ncc34)C2)C1 ?
Reply | > 100 µM

Ask | What value of measured IC50 is listed for Cn1ncc2c1CN(c1cc(Cl)cc3[nH]ncc13)CC2 ?
Reply | 3.24 to 31.6 µM

====

target: IDO (Homo sapiens); test: SKOV3 kynurenine cell-based assay (IDO induced by IFN-γ); parameters: IDO expression was induced in the SKOV3 cells by the addition of 500 ng/ml IFN-γ; endogenous in cells; host or cells: SKOV3 (human ovarian adenocarcinoma), induced with IFN-γ; details: SKOV3 human ovarian adenocarcinoma cells, 500 ng/ml IFN-γ, 48 hours, 500 μM L-tryptophan; read-out: SKOV3 Kynurenine cell based assay pIC50 (converted)
The following molecules are shown together with reported IC50 values.

INSERT INTO measurements (molecule, endpointlabel, reportedvalue) VALUES
  ('CS(=O)(=O)N1CCN(c2ccc3[nH]ncc3c2)CC1 [Compound 43]', 'IC50', '32.4 to 100 µM'),
  ('NS(=O)(=O)N1CCC2(CCN(c3cc(Cl)cc4[nH]ncc34)CC2)C1 [Compound 361]', 'IC50', '3.24 to 31.6 µM'),
  ('CC(C)C(=O)N1CCC(c2cc(Cl)cc3[nH]ncc23)CC1 [Compound 166]', 'IC50', '32.4 to 100 µM'),
  ('CN1C(=O)CCC12CCN(c1cc(Cl)cc3[nH]ncc13)CC2 [Compound 245]', 'IC50', '3.24 to 31.6 µM'),
  ('CS(=O)(=O)N1CCC(O)(c2cc(Cl)cc3[nH]ncc23)CC1 [Compound 123]', 'IC50', '3.24 to 31.6 µM'),
  ('CNC(=O)CN1CCN(c2cc(Cl)cc3[nH]ncc23)CC1 [Compound 59]', 'IC50', '3.24 to 31.6 µM'),
  ('CC1(C)CN(c2cc(Cl)cc3[nH]ncc23)CCN1S(N)(=O)=O [Compound 227]', 'IC50', '< 3.16 µM'),
  ('CC(=O)NC1CCC(c2cc(Cl)cc3[nH]ncc23)CC1 (mixture of isomers) [Compound 155]', 'IC50', '3.24 to 31.6 µM'),
  ('O=C1CCCN1C1CCN(c2cc(Cl)cc3[nH]ncc23)CC1 [Compound 372]', 'IC50', '3.24 to 31.6 µM'),
  ('Clc1cc(N2CCOCC2)c2cn[nH]c2c1 [Compound 327]', 'IC50', '3.24 to 31.6 µM');

Ask | What value of measured IC50 is listed for OC1(c2cc(Cl)cc3[nH]ncc23)CCOCC1 [Compound 319] ?
Reply | 32.4 to 100 µM

Ask | What value of measured IC50 is listed for CC(C)(O)C(=O)N1CCC(c2cc(Cl)cc3[nH]ncc23)CC1 [Compound 191] ?
Reply | > 100 µM

Ask | What value of measured IC50 is listed for CC(=O)N1CCN(c2cc(C(F)(F)F)cc3[nH]ncc23)CC1 [Compound 48] ?
Reply | 3.24 to 31.6 µM

====

Target: IDO (Homo sapiens, UniProt P14902)
Assay: SKOV3 kynurenine cell-based assay (IDO induced by IFN-γ)
Design: IDO expression was induced in the SKOV3 cells by the addition of 500 ng/ml IFN-γ; endogenous in cells; host or cells: SKOV3 (human ovarian adenocarcinoma), induced with IFN-γ
Conditions: SKOV3 human ovarian adenocarcinoma cells, 500 ng/ml IFN-γ, 48 hours, 500 μM L-tryptophan; read-out: SKOV3 Kynurenine cell based assay pIC50 (converted)
Protocol: Exemplary compounds of the invention were prepared, and tested to determine their effect as TDO and/or IDO inhibitors. […] This coupled enzyme system allowed conversion of N-formylkynurenine produced by TDO or IDO activity to kynurenine which was then quantified by fluorescence following addition of Erhlich's Reagent The protocols for these are set out below. […]
The following compounds are shown together with reported IC50 values.

INSERT INTO assay_data (compound, reportedvalue) VALUES
  ('COCC(=O)N1CCC(c2cc(Cl)cc3[nH]ncc23)CC1', '3.24 to 31.6 µM'),
  ('COC(=O)C1CCN(c2cc(Cl)cc3[nH]ncc23)CC1', '32.4 to 100 µM'),
  ('CC(=O)N1CCC(CNC(=O)c2cc(Cl)cc3[nH]ncc23)CC1', '32.4 to 100 µM'),
  ('CC1CN(c2cc(Cl)cc3[nH]ncc23)CCN1S(C)(=O)=O (stereo not shown)', '< 3.16 µM'),
  ('CC(=O)NC1CCN(c2cc(Cl)cc3[nH]ncc23)CC1', '3.24 to 31.6 µM');

Ask | What value of measured IC50 is listed for CC(=O)Nc1ccc(C2CCN(c3cc(Cl)cc4[nH]ncc34)CC2)cc1 ?
Reply | < 3.16 µM

Ask | What value of measured IC50 is listed for Cc1nn(C)c2c1CN(c1cc(Cl)cc3[nH]ncc13)CC2 ?
Reply | 3.24 to 31.6 µM
